# measurementTarget: T1, cynomolgus NKG2D-Fc fusion protein (cynomolgus; human, UniProt P61252 73-216)
# T1 construct: extracellular domain; also called cynomolgus recombinant NKG2D-Fc; cynomolgus recombinant NKG2D; not shown: human IgG1 Fc domain
# T1 sequence (looked up): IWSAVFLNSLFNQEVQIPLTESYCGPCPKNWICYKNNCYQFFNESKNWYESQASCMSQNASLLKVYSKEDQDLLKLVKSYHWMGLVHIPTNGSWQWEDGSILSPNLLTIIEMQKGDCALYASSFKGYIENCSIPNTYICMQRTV
# assayRemarks: ELISA on coated NKG2D-Fc
measuredProperty: binding result

### Prompt Query: binding result; subject: ADI-29447 (antibody, V domains shown, also called F47) VH: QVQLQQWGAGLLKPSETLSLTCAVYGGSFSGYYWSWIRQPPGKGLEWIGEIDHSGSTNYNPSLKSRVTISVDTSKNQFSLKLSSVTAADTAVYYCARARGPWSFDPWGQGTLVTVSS VL: DIQMTQSPSTLSASVGDRVTITCRASQSISSWLAWYQQKPGKAPKLLIYKASSLESGVPSRFSGSGSGTEFTLTISSLQPDDFATYYCQQYDTFITFGGGTKVEIK
### Response binds

### Prompt Any idea what binding result was measured for ADI-29424 (antibody, V domains shown) VH: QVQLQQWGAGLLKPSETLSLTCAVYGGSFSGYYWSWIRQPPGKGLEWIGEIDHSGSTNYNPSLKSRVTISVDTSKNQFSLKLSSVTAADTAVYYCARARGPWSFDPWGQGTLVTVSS VL: DIQMTQSPSTLSASVGDRVTITCRASQSISSWLAWYQQKPGKAPKLLIYKASSLESGVPSRFSGSGSGTEFTLTISSLQPDDFATYYCQQYDSFITFGGGTKVEIK ?
### Response binds

### Prompt Need binding result, item ADI-29426 (antibody, V domains shown) VH: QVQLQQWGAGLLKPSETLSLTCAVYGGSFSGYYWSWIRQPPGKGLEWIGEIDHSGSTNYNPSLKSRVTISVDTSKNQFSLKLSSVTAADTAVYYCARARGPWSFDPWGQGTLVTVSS VL: DIQMTQSPSTLSASVGDRVTITCRASQSIGSWLAWYQQKPGKAPKLLIYKASSLESGVPSRFSGSGSGTEFTLTISSLQPDDFATYYCQQYHSFPTFGGGTKVEIK
### Response binds

### Prompt For the binder ADI-29401 (antibody, V domains shown) VH: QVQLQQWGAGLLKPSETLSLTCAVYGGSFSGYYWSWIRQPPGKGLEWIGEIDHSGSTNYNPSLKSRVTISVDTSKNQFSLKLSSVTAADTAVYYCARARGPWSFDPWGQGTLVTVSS VL: DIQMTQSPSTLSASVGDRVTITCRASQSIGSWLAWYQQKPGKAPKLLIYKASSLESGVPSRFSGSGSGTEFTLTISSLQPDDFATYYCQQYDIYPTFGGGTKVEIK , what binding result is on record?
### Response binds
